Taken from PubChem BioAssay (NCI).

- Test system: HT29 colon
- PROTOCOL DETAILS: NCI tumour cell line growth inhibition, 48 h
Entries annotated with measured TGI

{"COMPOUND": "COC(=O)c1nn(C(=N)c2ccc(Cl)cc2)c2c1CCC2", "TGI": "> 100 µM"}
{"COMPOUND": "O=C(CC/C(CC(=O)c1ccc(Br)cc1)=N\\O)Nc1ccc(Cl)c(Cl)c1", "TGI": "> 100 µM"}
{"COMPOUND": "Oc1ccc(Cl)cc1C1=NC(/N=C\\c2ccccc2)=NC(c2ccccc2)C1 (centres undefined)", "TGI": "> 100 µM"}
{"COMPOUND": "CN(C)/N=N/c1nc[nH]c1C(N)=O", "TGI": "> 1000 µM"}
